measurementProtocol: solvent given as SMILES
details: in CC#N
Kindly apply the following: criterion met if emission maximum is less than 500 nm, criterion not met in every other case.

- Cc1ccc(/C=N/c2cc(C(C)C)c(O)cc2C)cc1: criterion met
- F[B-]1(F)n2c(-c3ccccc3)cc(-c3ccccc3)c2N=C2C(c3ccccc3)=CC(c3ccccc3)=[N+]21: criterion not met
- CC(C)(C)c1ccc(-c2nc3c4ccc(-c5ccccc5)cc4c4cc(-c5ccccc5)ccc4c3n2-c2ccc(C(C)(C)C)cc2)cc1: criterion met
- Cc1cc(O)c(C(C)C)cc1/N=C/c1ccc(O)cc1: criterion met
- Clc1nc(Nc2ccccc2)nc(Nc2ccc3c4cccc5cccc(c6cccc2c63)c54)n1: criterion met
- CCN1C(=O)C(C2C(=O)c3c4ccccc4cc4cc5ccccc5c2c34)SC1=S (stereo not given): criterion not met
- C(=C\c1cc[n+](Cc2ccccc2)cc1)/c1cc[n+](Cc2ccccc2)cc1: criterion met
- CCN(CC)c1ccc(/C=N/c2cc3nc4ccccc4nc3cc2/N=C/c2ccc(N(CC)CC)cc2O)c(O)c1: criterion not met
- COc1ccc(-c2nc(C(C)=O)c(C)o2)cc1: criterion met
- CCC1(CC)c2ccccc2-c2c1c1c(c3c2C(CC)(CC)c2cc(B(c4c(C)cc(C)cc4C)c4c(C)cc(C)cc4C)ccc2-3)C(CC)(CC)c2cc(B(c3c(C)cc(C)cc3C)c3c(C)cc(C)cc3C)ccc2-1: criterion met
- Cc1cc(-c2ccccc2)cc(C)[o+]1: criterion met
- Cc1cc(O)c(-c2[nH]c(=O)n3c2-c2ccccc2C3=O)cc1Cl: criterion met
- Cc1ccc(O)c(-c2[nH]c(=O)n3c2-c2ccccc2C3=O)c1: criterion met
- C=CCNc1ccc2c(ccc3oc4cc(=[N+](C)C)ccc-4nc32)c1: criterion not met
- CN(C)CCCN1c2ccccc2CCc2ccccc21: criterion met
- O=c1cc[nH]c(=O)[nH]1: criterion met
- CN(C)c1ccc(/C=C/C=C/C2=NC3C(=O)NC(N)=NC3N2[C@H]2C[C@H](O)[C@@H](CO)O2)cc1 (stereo not given in full): criterion met
- CCCCCCCCC1(CCCCCCCC)c2cc(C#CC#Cc3ccc(N(c4ccccc4)c4ccccc4)cc3)ccc2-c2ccc(C=O)cc21: criterion not met
- Cc1nc2ccc(/C=C/c3ccc(N(C)C)cc3)cc2nc1-c1ccccc1: criterion not met
- CN(C)c1ccc(C2=Cc3ccc4ccccc4[n+]3[B-](F)(F)O2)cc1: criterion not met

---

measurementProtocol: solvent given as SMILES
details: in CN(C)C=O
Reported emission maximum values follow for various compounds
measurementType: emission maximum

• C(=C\c1nc2ccccc2[nH]1)/c1ccc(/C=C/c2nc3ccccc3[nH]2)cc1 = 433 nm
• C#CCNC1=C2C=CC=[N+]2[B-](F)(F)n2cccc21 = 458 nm
• CC1=[N+]2C(=C(c3ccc(-c4c5ccccc5c(-c5ccccc5)c5ccccc45)cc3)c3ccc(C)n3[B-]2(F)F)C=C1 = 529 nm
• CN(C)c1ccc(/C=C/c2nc3ccccc3s2)cc1 = 504 nm
• CC(C)(C)c1ccc(-c2nc3c4ccc(-c5ccccc5)cc4c4cc(-c5ccccc5)ccc4c3n2-c2ccc(C(C)(C)C)cc2)cc1 = 392 nm
• CCn1c2ccccc2c2cc(C#Cc3cc(C#Cc4ccc5c(c4)c4ccccc4n5CC)nc(OC)n3)ccc21 = 499 nm
• O=C(O)c1ccccc1Nc1cccc(C(F)(F)F)c1 = 425 nm
• CN(C)/C=N\c1ccc2c3c(cccc13)C(=O)c1ccccc1-2 = 624 nm
• C(=C\c1ccc(-c2nnc(-c3ccccc3)o2)cc1)/c1ccc(-c2nnc(-c3ccccc3)o2)cc1 = 415 nm
• CC(C)(C)c1ccc2c(c1)c1cc(C(C)(C)C)ccc1n2-c1cccc(-c2nc(-c3cccc(-n4c5ccc(C(C)(C)C)cc5c5cc(C(C)(C)C)ccc54)c3)nc(-c3cccc(P(=O)(c4ccccc4)c4ccccc4)c3)n2)c1 = 532.99 nm
• CCC1(CC)c2ccccc2-c2ccc(C#Cc3ccc4ccc5cccc6ccc3c4c56)cc21 = 412 nm
• Cc1ccc(/C=N/c2cc(C(C)C)c(O)cc2C)cc1 = 414 nm
• CN(C)c1ccc(C2=Cc3ccc4ccccc4[n+]3[B-](F)(F)O2)cc1 = 581 nm
• CC(C)(C)NS(=O)(=O)c1ccc2c(c1)C(=O)/C(=C1\Sc3ccc(S(=O)(=O)NC(C)(C)C)cc3C1=O)S2 = 604 nm
• COc1cc2c(cc1/C=C/C(=C(C#N)C#N)c1ccccc1)c1ccccc1n2C = 573 nm
• COc1ccc(C#Cc2c3ccccc3c3n2[B-](F)(F)[N+]2=C(C)C=C(C)C2=C3)cc1 = 630 nm
• O=C1OC(=O)c2cc(Oc3ccccc3)c3c4ccc5c6c(cc(Oc7ccccc7)c(c7ccc1c2c73)c64)C(=O)OC5=O = 572 nm
• Fc1cc(-c2ccc(-c3nc4cc(Br)ccc4[nH]3)cc2)ccc1-c1ccc(-c2nc3cc(Br)ccc3[nH]2)cc1 = 417 nm
